All figures here come from paper PMC314469.

- Test system: Myo5 SH3 domain
- assayInfo: SPOT analysis of cellulose-bound peptides (WISE), Myo5 SH3 domain (Dataset S4)
- Type: binding, Saccharomyces cerevisiae
- assayContext: SPOT analysis of cellulose-bound peptides probed with Myo5 SH3 domain; normalized value
metric: The normalized value in BLU units (SPOT analysis, Myo5 SH3) (BLU)
Numeric answer only, unit BLU assumed.

Ask | Name the value of The normalized value in BLU units (SPOT analysis, Myo5 SH3) reported for SLISMETPEQPHQQ when tested on Myo5 SH3 domain.
Reply | 146.8

Ask | Name the value of The normalized value in BLU units (SPOT analysis, Myo5 SH3) reported for EETEMLAPKLPEEN when tested on Myo5 SH3 domain.
Reply | 81.6

Ask | Name the value of The normalized value in BLU units (SPOT analysis, Myo5 SH3) reported for SELTFIAPTQPVST when tested on Myo5 SH3 domain.
Reply | 110.5

Ask | Name the value of The normalized value in BLU units (SPOT analysis, Myo5 SH3) reported for LPAPPPPPRRGPA when tested on Myo5 SH3 domain.
Reply | 43350

Ask | Name the value of The normalized value in BLU units (SPOT analysis, Myo5 SH3) reported for ILHQLGAPSIPENL when tested on Myo5 SH3 domain.
Reply | 174.0

Ask | Name the value of The normalized value in BLU units (SPOT analysis, Myo5 SH3) reported for MANILYYPQKPLGT when tested on Myo5 SH3 domain.
Reply | 152.5

Ask | Name the value of The normalized value in BLU units (SPOT analysis, Myo5 SH3) reported for TLPPLSSPMNPNGH when tested on Myo5 SH3 domain.
Reply | 252.3

Ask | Name the value of The normalized value in BLU units (SPOT analysis, Myo5 SH3) reported for SWLTMLPPMAPLLS when tested on Myo5 SH3 domain.
Reply | 504.9

Ask | Name the value of The normalized value in BLU units (SPOT analysis, Myo5 SH3) reported for SPKKHVSPSRPPSV when tested on Myo5 SH3 domain.
Reply | 1427.8

Ask | Name the value of The normalized value in BLU units (SPOT analysis, Myo5 SH3) reported for NEGDLYPPEQPGVD when tested on Myo5 SH3 domain.
Reply | 80.1

Ask | Name the value of The normalized value in BLU units (SPOT analysis, Myo5 SH3) reported for SFTRMPLPTPPIEG when tested on Myo5 SH3 domain.
Reply | 287.1

Ask | Name the value of The normalized value in BLU units (SPOT analysis, Myo5 SH3) reported for SPFTFLFPFLPTII when tested on Myo5 SH3 domain.
Reply | 366.0

Ask | Name the value of The normalized value in BLU units (SPOT analysis, Myo5 SH3) reported for KFLIHNEPIDPNDR when tested on Myo5 SH3 domain.
Reply | 121.7

Ask | Name the value of The normalized value in BLU units (SPOT analysis, Myo5 SH3) reported for PEVHHHCPGVPCLV when tested on Myo5 SH3 domain.
Reply | 331.3

Ask | Name the value of The normalized value in BLU units (SPOT analysis, Myo5 SH3) reported for SETSHHSPSAPFQR when tested on Myo5 SH3 domain.
Reply | 257.2

Ask | Name the value of The normalized value in BLU units (SPOT analysis, Myo5 SH3) reported for QLIGFGNPKNPFAL when tested on Myo5 SH3 domain.
Reply | 46.1

Ask | Name the value of The normalized value in BLU units (SPOT analysis, Myo5 SH3) reported for AANAHISPPVPGPA when tested on Myo5 SH3 domain.
Reply | 28.6

Ask | Name the value of The normalized value in BLU units (SPOT analysis, Myo5 SH3) reported for YLNSLSEPLVPLAL when tested on Myo5 SH3 domain.
Reply | 131.6

Ask | Name the value of The normalized value in BLU units (SPOT analysis, Myo5 SH3) reported for NAIAMALPNEPYPA when tested on Myo5 SH3 domain.
Reply | 96.8

Ask | Name the value of The normalized value in BLU units (SPOT analysis, Myo5 SH3) reported for IARSFTIPFLPKIP when tested on Myo5 SH3 domain.
Reply | 204.5

Ask | Name the value of The normalized value in BLU units (SPOT analysis, Myo5 SH3) reported for VLIKFVIPVYPSLP when tested on Myo5 SH3 domain.
Reply | 561.8

Ask | Name the value of The normalized value in BLU units (SPOT analysis, Myo5 SH3) reported for EPATLPLPGTPTLA when tested on Myo5 SH3 domain.
Reply | 61.8

Ask | Name the value of The normalized value in BLU units (SPOT analysis, Myo5 SH3) reported for NASLLRDPSAPYAH when tested on Myo5 SH3 domain.
Reply | 133.8

Ask | Name the value of The normalized value in BLU units (SPOT analysis, Myo5 SH3) reported for VLFNLDHPMVPENL when tested on Myo5 SH3 domain.
Reply | 220.3

Ask | Name the value of The normalized value in BLU units (SPOT analysis, Myo5 SH3) reported for QELRFLVPLVPLLV when tested on Myo5 SH3 domain.
Reply | 119.1

Ask | Name the value of The normalized value in BLU units (SPOT analysis, Myo5 SH3) reported for EARPYSEPSEPEDS when tested on Myo5 SH3 domain.
Reply | 208.3

====

- System: Myo5 SH3 domain
- assayInfo: SPOT analysis of cellulose-bound peptides (WISE), Myo5 SH3 domain (Dataset S4)
- Assay type: binding, Saccharomyces cerevisiae
- assayContext: SPOT analysis of cellulose-bound 14-mer yeast proteome peptides, Myo5 SH3 domain; normalized value; mean where the peptide was synthesized more than once
The label depends only on The normalized value in BLU units: Yes if it is at least 200 BLU, No if it is smaller.

Ask | Could you verify whether the entry INNTRLSPNSPTPP shows The normalized value in BLU units of no less than 200 BLU?
Reply | No

Ask | Could you verify whether the entry SFRELWQPVDPSRE shows The normalized value in BLU units of no less than 200 BLU?
Reply | No

Ask | Could you verify whether the entry KPSGYYGPNSPLKL shows The normalized value in BLU units of no less than 200 BLU?
Reply | No

Ask | Could you verify whether the entry KTKKKTVPVKPLQL shows The normalized value in BLU units of no less than 200 BLU?
Reply | Yes

Ask | Could you verify whether the entry KAVHLYFPILPHCG shows The normalized value in BLU units of no less than 200 BLU?
Reply | No

Ask | Could you verify whether the entry TLHELGVPITPIAF shows The normalized value in BLU units of no less than 200 BLU?
Reply | No

Ask | Could you verify whether the entry NAPERAVPILPPRN shows The normalized value in BLU units of no less than 200 BLU?
Reply | Yes

====

- Test system: Myo5 SH3 domain
- assayInfo: SPOT analysis of cellulose-bound peptides (WISE), Myo5 SH3 domain (Dataset S4)
- Type: binding, Saccharomyces cerevisiae
- assayContext: SPOT analysis of cellulose-bound 14-mer yeast proteome peptides, Myo5 SH3 domain; normalized value; mean where the peptide was synthesized more than once
metric: The normalized value in BLU units

Ask | Give recorded The normalized value in BLU units. ALWAKFFPEKPLNI
Reply | 154.0 BLU

Ask | Give recorded The normalized value in BLU units. ALYHLSNPNVPKLW
Reply | 195.7 BLU

Ask | Give recorded The normalized value in BLU units. ELFTFDMPTDPSSF
Reply | 44.9 BLU

Ask | Give recorded The normalized value in BLU units. TLDEKECPSVPPTV
Reply | 211.5 BLU

Ask | Give recorded The normalized value in BLU units. SAENLIQPTAPIRD
Reply | 56.4 BLU

====

- System: Myo5 SH3 domain
- assayInfo: SPOT analysis of cellulose-bound peptides (WISE), Myo5 SH3 domain (Dataset S4)
- Format: binding, Saccharomyces cerevisiae
- assayContext: SPOT analysis of cellulose-bound 14-mer yeast proteome peptides, Myo5 SH3 domain; normalized value; mean where the peptide was synthesized more than once
metric: The normalized value in BLU units (BLU)
Numeric answer only, unit BLU assumed.

Ask | Give recorded The normalized value in BLU units. HPEYLSLPFEPYCF
Reply | 212.9

Ask | Give recorded The normalized value in BLU units. FPKKMGPPQWPFST
Reply | 279.0

Ask | Give recorded The normalized value in BLU units. MAEFRRVPLPPMAE
Reply | 442.6

Ask | Give recorded The normalized value in BLU units. NAQLRKTPLEPGLE
Reply | 175.9

Ask | Give recorded The normalized value in BLU units. IAKPYVLPFFPLYA
Reply | 246.9

Ask | Give recorded The normalized value in BLU units. LPTALLSPLRPSLC
Reply | 115.0

Ask | Give recorded The normalized value in BLU units. YEADYVIPVLPGSH
Reply | 124.6

Ask | Give recorded The normalized value in BLU units. KLALHQYPNFPSEG
Reply | 130.3

Ask | Give recorded The normalized value in BLU units. EEQVKEKPNEPEGK
Reply | 134.2

Ask | Give recorded The normalized value in BLU units. HLFHLTTPQDPRLL
Reply | 245.7

Ask | Give recorded The normalized value in BLU units. PFIDYEFPHLPNEL
Reply | 98.9

Ask | Give recorded The normalized value in BLU units. MEEPFIWPEEPRPD
Reply | 79.7

Ask | Give recorded The normalized value in BLU units. VFSCLRDPVIPIKL
Reply | 132.4
